# System: NCI-H226 lung
# experimentNotes: NCI tumour cell line growth inhibition, 48 h
Reported TGI values for the following molecules.
observationType: TGI

molecule	targetOrTestSystem	result
COc1cc2c(cc1OCCCCCOc1cc(-c3ccc(F)cc3)nc(C)n1)N=C[C@@H]1CCCN1C2=O	NCI-H226 lung	> 100 µM
CCc1cc(Cc2cc(CC)c(NC(=O)C3=CC(=O)CC(c4ccc(OC)cc4)O3)c(CC)c2Cl)c(Cl)c(CC)c1NC(=O)C1=CC(=O)CC(c2ccc(OC)cc2)O1 (stereo not given)	NCI-H226 lung	47.5 µM
CSC1=N/C(=C\c2cccs2)C(=O)N1CN1CCCCC1	NCI-H226 lung	> 100 µM
N#Cc1cnn2c1n[n+]([O-])c1ccc(Cl)cc12	NCI-H226 lung	49.7 µM
CC(=O)Nc1ccc(-c2nnc(SCC(=O)Nc3ccccc3Cl)o2)cc1	NCI-H226 lung	> 100 µM
CCN(CC)CCCCC1CCN(CC(=O)N2c3ccccc3NC(=O)c3ccccc32)CC1	NCI-H226 lung	> 100 µM
C/C(=N\NC(N)=S)c1ccc(/C(C)=N/NC(N)=S)cc1	NCI-H226 lung	> 100 µM
S=C(Nc1ccccc1)c1ccccn1	NCI-H226 lung	> 100 µM
O=C(O)CCC(=O)Nc1ccc2c(c1)S(=O)(=O)N(CC(=O)O)C2=O	NCI-H226 lung	> 100 µM
COC(=O)C1=CN(CC2=CC(=O)C(C)=CC2=O)C=C(C(=O)OC)C1c1cccc(OC)c1OC	NCI-H226 lung	40.5 µM
CCC(=O)N(c1ccccc1)C(C)CN1CCC(O)(c2ccccc2)CC1 (stereo not given)	NCI-H226 lung	> 100 µM
CC[C@@]1(O)C(=O)OCc2c1c(Cl)c1n(c2=O)Cc2cc3ccccc3nc2-1	NCI-H226 lung	31.2 µM
Cc1cccc(C(C)(C)C)c1NC(=O)CC1C(=O)Nc2ccccc2S1=O (stereo not given)	NCI-H226 lung	> 100 µM
O=c1c2cc(I)ccc2nc(-c2cccs2)n1Nc1ccccc1	NCI-H226 lung	> 100 µM
COc1ncnc2c(NC3OC(CO)C(O)C3O)ncnc12 (stereo not given)	NCI-H226 lung	3.82 µM
CC(=O)NNC=N/C(C#N)=C(\N)C#N	NCI-H226 lung	> 100 µM
CCCCCC(=O)N1c2ccccc2NC2=C(C(=O)CC(c3ccc(OC)c(OC)c3)C2)C1c1ccc(C(F)(F)F)cc1 (stereo not given)	NCI-H226 lung	> 100 µM
Cc1ccc(-c2c(C#N)c(-c3ccc(N(C)C)cc3)c(C#N)c(=O)n2NS(=O)(=O)c2ccccc2)cc1	NCI-H226 lung	> 100 µM
CCOC(=O)c1cc2c(cc1Cl)SC(N(c1ccc(F)cc1)S(=O)(=O)c1ccc(OC)cc1)=NS2(=O)=O	NCI-H226 lung	> 100 µM
CCOP(=O)(CS(C)=O)O[C@@H]1C[C@H](C)CC[C@H]1C(C)C (stereo not given in full)	NCI-H226 lung	12.2 µM

* * *

# Tested on: 786-0 renal
# experimentNotes: NCI tumour cell line growth inhibition, 48 h

compound	targetOrTestSystem	TGI
CC(=O)Nc1c(C)cc(OCC(=O)O)cc1C	786-0 renal	> 100 µM
COc1ccc2c(c1)[nH]c(=O)c1c3cccnc3cn21	786-0 renal	15.8 µM
OCCNc1nc(NCCO)nc(Nc2ccc(C3=NN(c4cc(Cl)cc(Cl)c4)C(c4ccc(Cl)cc4)C3)cc2)n1 (stereo unspecified)	786-0 renal	3.28 µM
CC1(C)OC2C(CO)OC(n3ccc(=O)[nH]c3=O)C2O1 (stereo unspecified)	786-0 renal	> 100 µM
Cc1ccc(NC(=O)c2ccnc(C(F)(F)F)c2)cc1-c1cc(OCCO)nc(N2CCOCC2)c1	786-0 renal	38.2 µM
O=C1N=C2c3c(sc4c3CCCC4)N=CN2C1N=Nc1ccc(Cl)cc1 (stereo unspecified)	786-0 renal	> 100 µM
COc1ccc2oc(=N)c(C(N)=S)cc2c1	786-0 renal	> 100 µM
O=C(O)Cc1cc(=O)oc2cc(O)c(Cl)cc12	786-0 renal	> 100 µM
Cc1ccc2sc3cc(=O)cc(C)c-3nc2c1	786-0 renal	> 100 µM
COc1ccc(/C=C2/C(=O)N(C(=O)c3ccc(Cl)cc3)N=C2C)cc1OC	786-0 renal	> 100 µM
O=C1C(NCCO)=C(N2CC2)C(=O)C(NCCO)=C1N1CC1	786-0 renal	> 60.9 µM
COC(=O)Nc1ccc2ccc3c(NC(=O)OC)ccc4ccc1c2c43 (tested in a mixture with another compound)	786-0 renal	41.2 µM
CC(=O)c1c2c(cc3c1CC1(Cc4cc5c(cc4C1)CCC5)C3)CCC2	786-0 renal	> 100 µM
Cn1c(=O)nc2n(CCO)c(-c3ccccc3)c(-c3ccccc3)nc-2c1=O	786-0 renal	> 100 µM
COc1nccc(-c2c(-c3ccc(F)cc3)ncn2C2CCC(O)CC2)n1 (stereo unspecified)	786-0 renal	> 100 µM
CC(C)(C)Cn1c(N)nc2ccc(-c3[nH]c(C(C)(C)C)nc3-c3ccc(F)cc3)nc21	786-0 renal	25.9 µM
C/C(C=O)=N\Nc1cc(C)c2ccccc2n1	786-0 renal	28.7 µM
FC(F)(F)c1ccc2c(c1)N(CCCN1CCN(C3CC3)CC1)c1ccccc1S2	786-0 renal	30.3 µM
Cc1cc2c(cn1)C(=O)OCC2	786-0 renal	> 100 µM
C[C@]12CC[C@H]3[C@@H](CCC4=CC(=O)CC[C@@H]43)[C@@H]1CC[C@@H]2OC1(O)C(=O)c2ccccc2C1=O	786-0 renal	83.5 µM
COc1ccc(C2CC(=O)Nc3c2c(C)nn3-c2nc3ccccc3[nH]2)cc1 (stereo unspecified)	786-0 renal	> 33.3 µM

* * *

# System: IGROV1 ovarian
# experimentNotes: NCI tumour cell line growth inhibition, 48 h
observationType: TGI (µM)

compound	ltGtEq	numericResult
Oc1ccccc1C=Nc1ccc(Oc2ccc(Cl)cc2)c(Cl)c1	>	100
CCOC(=O)c1sc(=S)c2c(C(=O)c3ccccc3)c(C(=O)c3ccccc3)sc2c1C(=O)OCC	=	85.7
COC(=O)c1nc(-c2ccc(Cl)c(Cl)c2)nc2ccccc12	>	100
CC1CCC2(OC1)OC1CC3C4CC=C5CC(OC6OC(CO)C(OC7OC(C)C(OC8OC(C)C(O)C(O)C8O)C(O)C7O)C(O)C6OC6OC(C)C(O)C(O)C6O)CCC5(C)C4CCC3(C)C1C2C (stereo not given)	=	2.59

* * *

# Tested on: RPMI-8226 leukemia
# experimentNotes: NCI tumour cell line growth inhibition, 48 h
Reported TGI values for the following compounds.

compound	TGI
CCn1c(=O)c2c(=O)[nH][nH]c2c2ccccc21	> 100 µM
Cc1nc2ccccc2nc1NS(=O)(=O)c1ccc(N)cc1	> 100 µM
C/C(=N\NC(N)=S)c1ccc(/C(C)=N/NC(N)=S)cc1	> 100 µM
O=C1/C(=C/c2cccc([N+](=O)[O-])c2)CCCc2ccccc21	49 µM
O=C(Oc1ccccc1)c1cc(O)c(O)c(O)c1	> 100 µM
COc1cc(/C=C2\CCCC3=C2NC(N)=NC3c2cc(OC)c(OC)c(OC)c2)cc(OC)c1OC (stereo unspecified)	1.79 µM
N#Cc1c(-c2ccccc2)c(C#N)c(=O)n(NS(=O)(=O)c2ccccc2)c1O	> 100 µM
O=S(=O)(CC1=NC2C=CC=CC2N=C1)NCc1ccccc1 (stereo unspecified)	> 100 µM
CCOC(=O)[C@H]1C[C@@H](C(=O)c2ccccc2)N2N=C(c3ccc(Br)cc3)C=C[C@H]12	> 100 µM
O=C(Nc1ccccc1Cl)c1cnc2ccc(C3CCNCC3)cn12	> 100 µM
CCOc1ccc(NCC(=O)N2CC(=O)Nc3ccccc32)cc1	> 100 µM

* * *

# System: HS 578T breast
# experimentNotes: NCI tumour cell line growth inhibition, 48 h
Reported TGI values for the following compounds.

compound	TGI
Cn1c(=O)nc2n(CCO)c(-c3ccccc3)c(-c3ccccc3)nc-2c1=O	> 100 µM
CC1CN=C(NCc2ccccc2)S1 (stereo not drawn)	> 100 µM
O=c1nc2n(CCO)c(-c3ccccc3)c(-c3ccccc3)nc-2c(=O)[nH]1	> 100 µM
CC1=NC(=Cc2ccc(Cl)cc2)C(=O)N1n1c(-c2ccccc2)nc2ccccc2c1=O	57.3 µM
CCCCCCN(C(=O)Oc1ccccc1)C(C#N)c1ccccc1 (stereo not drawn)	> 100 µM
CCCCCC(=O)N1c2ccccc2NC2=C(C(=O)CC(c3ccc(OC)c(OC)c3)C2)C1c1ccc(C(F)(F)F)cc1 (stereo not drawn)	> 100 µM
CC(=O)OCC(=O)[C@@]1(O)[C@H](C)C[C@H]2[C@@H]3C=C(C)C4=Cc5c(cnn5-c5ccc(F)cc5)C[C@]4(C)[C@H]3[C@@H](O)C[C@@]21C	4.05 µM
Fc1ccc(C(OCCN2CCC3CCC(C2)N3CCCc2ccccc2)c2ccc(F)cc2)cc1 (stereo not drawn)	19.7 µM
CCCCCCCCCCCCCCCCC(C(=O)O)C(O)(CC(=O)O)C(=O)O (stereo not drawn)	58.6 µM
O=c1cc(-c2ccc(O)c(O)c2)oc2cc(OC3OC(CO)C(O)C(O)C3O)cc(O)c12 (stereo not drawn)	> 100 µM
CC[C@@]1(O)C(=O)OCc2c1c(Cl)c1n(c2=O)Cc2cc3ccccc3nc2-1	> 100 µM
O=C1/C(=C/c2cccc([N+](=O)[O-])c2)CCCc2ccccc21	25.9 µM
O=C(CNC(=O)c1cccc2ccccc12)Nc1ccccc1Oc1cccc(O)c1	> 25 µM
CC(=O)NNC=N/C(C#N)=C(\N)C#N	> 100 µM
O=C(O)CC(Cc1ccc2c(c1)OCO2)C(=O)O (stereo not drawn)	> 100 µM
CC(=O)OCC(OC(C)=O)C(OC(C)=O)C(/C=N/N(C(C)=O)S(=O)(=O)c1ccc(/C=C2\NC(=O)NC2=O)cc1)OC(C)=O (stereo not drawn)	> 100 µM
N#C/C(=C\c1cn(-c2ccccc2)c2ccccc12)C(=O)O	> 100 µM
CCN(CC)c1ccc(/C=N/NC(=O)c2ccc(Nc3ccnc(C(F)(F)F)c3)cc2)c(O)c1	3.6 µM
CCn1c(=O)c2c(=O)[nH][nH]c2c2ccccc21	> 100 µM
C=C1C(=O)O[C@H]2[C@H]1CC/C(COC(=O)NCCc1ccc(OC)cc1)=C\CC[C@@]1(C)O[C@@H]21	62.9 µM
Clc1nc(Cl)c2ncn(C/C=C\Cn3cnc4c(Cl)nc(Cl)nc43)c2n1	6.12 µM
c1ccc(-c2nc(Nc3ccc(-c4nc5ccccc5[nH]4)cc3)nc(N3CCOCC3)n2)cc1	6.04 µM
COc1ccccc1NC(=O)C(C#N)=C(SC)SC	> 100 µM
